The measured values listed here are drawn from patent US20160362487A1.

# targetSystem: T1, human IL-33 (R&D Systems, #3625-IL-010/CF) (human, UniProt O95760 112-270)
# T1 construct: Commercial recombinant protein; also called hIL-33; interleukin-33
# T1 sequence (looked up): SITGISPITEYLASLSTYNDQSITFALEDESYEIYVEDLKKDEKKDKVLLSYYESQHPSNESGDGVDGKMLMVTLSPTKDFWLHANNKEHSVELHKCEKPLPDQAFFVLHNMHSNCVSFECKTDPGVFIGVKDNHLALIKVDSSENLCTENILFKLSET
# method: SPR 25C pH7.4, mAb captured
# kon >= 600000 M⁻¹ s⁻¹ gives Fulfilled, anything below gives Not fulfilled

Assess whether reported kon for H4H9659P (antibody, human IgG4, V domains shown, Human IgG4 Fc (H4H)) VH: QVQLVQSGAEVKKPGASVKVSCKASGYTFNSYGISWVRQAPGQGLEWMGWISSHNGNSHYVQKFQGRVSMTTDTSTSTAYMELRSLRSDDTAVYYCARHSYTTSWYGGFDYWGQGTLVTVSS VL: DIQMTQSPSSVSASVGDRVTITCRASQGFSSWLAWYQQKPGKAPQLLIYAASSLQSGVPSRFSGSGSGSDFTLTISSLQPEDFATYYCQQANSFPLTFGGGTKVEIK sits at 600000 M⁻¹ s⁻¹ or higher.
Not fulfilled

Assess whether reported kon for H1M9566N (antibody, mouse IgG1, V domains shown, Human variable domains, mouse IgG1 Fc (H1M)) VH: EVQLLESGGDLVQPGGSLRLSCAASGFTFSSYAMSWVRQAPGKGLEWVSVISGSGSSTDYADSVKGRFTISRDNSRDTLHLQMNSLRAEDTAVYYCAKTFYYFYGLDVWGQGTTVTVSS VL: DIQMTQSPSSLSASLRDRVTITCRASQGISNYLAWYQQKPGKVPKVLIYAASTLQSGVPSRFSGSGSGTVFTLTISSLQTEDVATYYCQKYSSAPFTFGPGTKVDIK sits at 600000 M⁻¹ s⁻¹ or higher.
Not fulfilled

Assess whether reported kon for H4H9667P (antibody, human IgG4, V domains shown, Human IgG4 Fc (H4H)) VH: EVQLVESGGGLVQPGGSLRLSCAASGFTFSTYSMHWVRQAPGKGLEYVSTINNNGDTTYYADSVKGRFTISRDNSKNTLYLQLGSLRPEDMAVYYCARQTYTSSWYGGFDSWGQGTLVTVSS VL: DIQMTQSPSSVSASVGDRVTITCRASQGITSWLAWYQQKPGKAPKLLIYAASNLQSGVPSRFSGSGSGTDFTLTITSLQPEDFATYYCQQANSLPFTFGPGTKVDIK sits at 600000 M⁻¹ s⁻¹ or higher.
Fulfilled

Assess whether reported kon for H4H9640P (antibody, human IgG4, V domains shown, Human IgG4 Fc (H4H)) VH: QVQLQESGPGLVKPSETLSLTCTVSGGSISSYYWSWIRQPPGKGLELIGYIYYSGSTNYNPSLKSRVTISVDTSKNHFSLKLSSVTAADTAVYYCARSQYTSSWYGSFDIWGQGTMVTVSS VL: DIQMTQSPSSVSASVGDRVTITCRASQGISTWLAWFQQKPGKAPKLLIYAASTLQGGVPSRFSGSGSGPEFTLTISSLQPEDFATYYCQQANSFPWTFGQGTKVEIK sits at 600000 M⁻¹ s⁻¹ or higher.
Fulfilled

Assess whether reported kon for H4H9663P (antibody, human IgG4, V domains shown, Human IgG4 Fc (H4H)) VH: QVQLVQSGAEVKKPGASVKVSCKASGYTFTGHYMYWMRQAPGQGLEWMGWINPNSGGTNYAQKFQDRVTMTRDTSISTAYMELSRLRSDDTAVYYCARGRYGSSWYGGFEYWGQGTLVTVSS VL: DIQMTQSPSSVSASVGDRVTITCRASQGITSWLAWYQQKPGKAPNLLIYAAASLQSGVPSRFSGSGSGTDFTLTISSLQPEDFTTYYCQQAYSLPLTFGGGTKVEIK sits at 600000 M⁻¹ s⁻¹ or higher.
Fulfilled
